Here, each record is paired with measured HI activity data.
target: Influenza virus A/Brisbane/59/2007 (H1N1) (Influenza A virus A/Brisbane/59/2007 (H1N1)); assay: cell-based or functional assay

Reference set (2 entries):
Binder	HI activity
Group 39 representative clone F082-237, Fab-PP-type antibody (Fab, V domains shown) VH: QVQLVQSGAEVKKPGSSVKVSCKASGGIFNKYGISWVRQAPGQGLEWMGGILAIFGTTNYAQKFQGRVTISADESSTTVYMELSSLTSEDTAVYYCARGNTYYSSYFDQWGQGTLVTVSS VL: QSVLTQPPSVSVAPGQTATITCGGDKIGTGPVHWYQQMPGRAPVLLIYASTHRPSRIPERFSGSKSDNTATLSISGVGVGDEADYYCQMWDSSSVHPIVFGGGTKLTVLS	> 160 µg/mL
Group 52 representative clone F083-328, Fab-PP-type antibody (Fab, V domains shown) VH: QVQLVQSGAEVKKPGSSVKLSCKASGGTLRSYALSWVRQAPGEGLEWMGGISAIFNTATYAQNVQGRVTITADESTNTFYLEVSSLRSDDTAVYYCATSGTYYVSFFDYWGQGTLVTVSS VL: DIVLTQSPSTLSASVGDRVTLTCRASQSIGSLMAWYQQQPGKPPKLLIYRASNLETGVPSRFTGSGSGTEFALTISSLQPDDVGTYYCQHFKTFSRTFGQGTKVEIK	> 160 µg/mL

Field: next binder
Please look up its HI activity: Group 2 representative clone F082-220, Fab-PP-type antibody (Fab, V domains shown) VH: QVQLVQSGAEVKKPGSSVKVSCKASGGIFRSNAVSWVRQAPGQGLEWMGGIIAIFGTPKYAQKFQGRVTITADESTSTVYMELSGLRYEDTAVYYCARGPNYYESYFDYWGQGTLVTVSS VL: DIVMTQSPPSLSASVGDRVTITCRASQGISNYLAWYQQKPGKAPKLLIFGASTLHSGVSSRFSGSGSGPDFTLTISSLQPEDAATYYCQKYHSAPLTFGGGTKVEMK
> 160 µg/mL
